Below, each of the molecules is paired with its reported GLXMAW herbicidal rating value.
- System: GLXMAW (Soybean, Williams)
- protocol.summary: Postemergence herbicidal evaluation
- Assay type: in vivo, Glycine max, (L.) Merr. cv Williams
- particulars: postemergence, rate 0.1250 kg/ha
Lab note: write the figure by itself, no unit.

Worked examples follow.
- molecule: "C=CCN1C(=O)C(CC(=O)NOC)SC1=Nc1cc(-n2c(=O)cc(C(F)(F)F)n(C)c2=O)c(F)cc1Cl (stereo not drawn) [Compound 85]"
  test.result: 7.5
- molecule: "CC1SC(=Nc2cc(-n3c(=O)cc(C(F)(F)F)n(C)c3=O)c(F)cc2Cl)N(C)C1=O (stereo not drawn) [Compound 9]"
  test.result: 7.3
- molecule: "CCOC(=O)CN1C(=O)C(F)SC1=Nc1cc(-n2c(=O)cc(C(F)(F)F)n(C)c2=O)c(F)cc1Cl (stereo not drawn) [Compound 11]"
  test.result: 9.0
- molecule: "CCOC(=O)CN1C(=O)C(CC(=O)OC(C)C(=O)OCC)S/C1=N/c1cc(-n2c(=O)cc(C(F)(F)F)n(C)c2=O)c(F)cc1Cl (stereo not drawn) [Compound 87]"
  test.result: 8.0
- molecule: "CCOC(=O)CN1C(=O)C(C)SC1=Nc1cc(-n2c(=O)cc(C(F)(F)F)n(C)c2=O)c(F)cc1Cl (stereo not drawn) [Compound 12]"
  test.result: 8.0

Please examine the following record next.
Task item: Give the reported value of GLXMAW herbicidal rating for this record: COC(=O)CN1C(=O)CSC1=Nc1cc(-n2c(=O)cc(C(F)(F)F)n(C)c2=O)c(F)cc1Cl [Compound 17]
Reply: 7.5
